Data origin: patent US20240217968A1

target_or_system: recombinant human Flag-tagged PARP7 (amino acids 456-657) (Homo sapiens, UniProt Q7Z3E1)
Construct: recombinant human Flag-tagged PARP7 (amino acids 456-657)
Sequence (Q7Z3E1 456-657): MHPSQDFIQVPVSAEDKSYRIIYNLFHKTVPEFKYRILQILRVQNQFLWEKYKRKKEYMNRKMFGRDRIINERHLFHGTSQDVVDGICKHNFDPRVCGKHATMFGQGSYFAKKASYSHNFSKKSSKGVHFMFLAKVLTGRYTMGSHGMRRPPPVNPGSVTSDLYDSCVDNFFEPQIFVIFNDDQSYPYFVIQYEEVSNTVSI
assay_method_text: PARP7 biochemical DELFIA assay (auto-MARylation)
test_settings: DELFIA readout, IC50 class
List of IC50 values.
measurement_name: IC50

compound	val
O=C1NCc2c(CCOCCC(=O)N3CCN(c4ncc(C(F)(F)F)cn4)CC3)cccc21	100 to 1000 nM
CC(COCCC(=O)N1CCN(c2ncc(F)cn2)CC1)n1nc(C(F)(F)F)c2c(=O)[nH]ncc21 (single isomer, unassigned) [Compound 249]	≤ 100 nM
O=C(CCOCCc1cccc2c(=O)[nH]ncc12)N1CCN(c2ncc(C(F)(F)F)cn2)C(CO)C1 (stereo not shown) [Compound 148]	≤ 100 nM
CC(COCCC(=O)N1CCN(c2ccc(C#N)cn2)CC1)n1ncc2c(=O)[nH]ncc21 (single isomer, unassigned) [Compound 190]	100 to 1000 nM
Cc1ccc(CCOCCC(=O)N2CCN(c3ncc(C(F)(F)F)cn3)CC2)c2cn[nH]c(=O)c12	≤ 100 nM
O=C(CCOCCn1ncc2c(=O)[nH]ncc21)N1CCN(c2ncc(Cl)cn2)CC1	≤ 100 nM
O=C(CCOCCn1c(=O)ccc2c(=O)[nH]ncc21)N1CCN(c2ncc(C(F)(F)F)cn2)CC1	≤ 100 nM
